Recorded measurements of TGI, one per entry
# Tested on: M14 melanoma
# protocol_text: NCI tumour cell line growth inhibition, 48 h

• COc1ccc(/C=C2\Cc3ccccc3C2=O)cc1OC = > 100 µM
• CC1=C(C(=O)OCCc2ccc([N+](=O)[O-])cc2)C(c2ccccc2[N+](=O)[O-])C(C(=O)OC(C)C)=C(C)N1 (stereo not drawn) = 36.7 µM
• COC(=O)[C@H](C)N1C(=O)N[C@@H](C(C)C)C1=O = > 100 µM
• Cc1cc(NS(=O)(=O)c2ccc(Nc3c4ccccc4nc4c(C(=O)Nc5ccc(S(=O)(=O)N=C(N)N)cc5)cccc34)cc2)no1 = > 100 µM
• CCOC(=O)C1N(S(=O)(=O)c2ccc(C)cc2)CCC12c1ccccc1N(C(C)=O)C2C(/C=C/C(=O)OC)=C/C(=O)OC (stereo not drawn) = > 100 µM

Q) Endpoint output: TGI of "CC(=O)NS(=O)(=O)c1ccc(NC(=O)COC(=O)c2cccc3c(=O)c4ccccc4[nH]c23)cc1" . Value?
A) > 100 µM

Q) Endpoint output: TGI of "Cc1ccc(S(=O)(=O)N(/N=C(\N)Oc2ccc(Cl)cc2)C(=N)Oc2ccc(Cl)cc2)cc1" . Value?
A) > 100 µM

Q) Endpoint output: TGI of Cc1c[nH]c2c1C13CC1CN(C(=O)c1cc4cc(NC(=O)c5cc6ccccc6o5)ccc4[nH]1)C3=CC2=O (stereo not drawn) . Value?
A) < 0.001 µM

---

Recorded measurements of TGI, one per entry
# Tested on: SF-295 CNS
# protocol_text: NCI tumour cell line growth inhibition, 48 h

A selection of reference data follows.
• COc1ccc2cccc(C(=O)c3ccc(C)c4c3CCC4)c2c1 = > 100 µM
• COC(=O)c1c[nH]c(=O)[nH]c1=O = > 100 µM
• COc1ccc(-c2ccc(/C=C/C(=O)NO)cc2)cc1 = 2.01 µM
• COC(=O)C1=C(O)C(C(=O)OC)[C@@]2(O)[C@@H](C(=O)OC)C(c3ccc(OC(=O)/C(=C/c4ccc(Cl)cc4)c4ccc(Cl)cc4)cc3)C[C@@H]1[C@@H]2C(=O)OC (stereo not given in full) = > 100 µM
• O=C(CC(O)(C(F)(F)F)C(F)(F)F)C(CCCl)C(O)(C(F)(F)F)C(F)(F)F (stereo not given) = > 100 µM
• COC(=O)[C@H](C)N1C(=O)N[C@@H](C(C)C)C1=O = > 100 µM

Shifting focus to the compound that follows.
Q) // lookup TGI | system=SF-295 CNS | key= OCC1OC(n2cnc3cccnc32)CC1O (stereo not given)
A) > 100 µM

---

Recorded measurements of TGI, one per entry
# System: UACC-257 melanoma
# protocol_text: NCI tumour cell line growth inhibition, 48 h

A selection of reference data follows.
- CCc1nnc(-n2c(C)nc3cc(Cl)ccc3c2=O)s1: > 100 µM
- Oc1ccc2oc3ncc(Cl)c(-c4ccccc4)c3c2c1: > 100 µM
- Cc1cc(Cc2c(F)c(F)c(Cc3cc(C)no3)c(F)c2F)on1: > 100 µM
- Nc1ccc(-c2nc3ccc4[nH]ncc4c3c3c2CCCC3)cc1F: 10.7 µM
- CCOC1OCCCC1Br (stereo unspecified): > 100 µM
- C=CCC(CNC(=O)OCc1ccccc1)O[Si](C)(C)C(C)(C)C (stereo unspecified): 83.7 µM
- COc1cc([C@@H]2c3cc4c(cc3[C@@H](NC(=O)c3ccc(N)cc3)C3COC(=O)[C@@H]32)OCO4)cc(OC)c1O (stereo partly specified): > 100 µM
- CN(CCc1ccc(Cl)c(Cl)c1)[C@H]1CCCC[C@H]1N1CCCC1: > 100 µM
- C/C(=C\c1ccc(Cl)cc1)C(C)(C)C(=O)O: > 100 µM
- O=C1c2ccccc2C(=O)c2c1ccc(C(Br)Br)c2[N+](=O)[O-]: 3.28 µM

Q) Endpoint output: TGI of COc1cc2cc(C(=O)N3CC(CCl)c4c3cc(N)c3ccccc43)[nH]c2cc1OCCN(C)C (stereo unspecified) . Value?
A) 16.8 µM

Q) Endpoint output: TGI of O=C(N/N=C(/c1nc2ccc(Cl)cc2[nH]c1=O)C(O)c1ccc(Cl)cc1Cl)c1ccncc1 (stereo unspecified) . Value?
A) > 100 µM

Q) Endpoint output: TGI of "CCOC(=O)c1cc2c(OC(C)=O)ccc(OC(C)=O)c2s1" . Value?
A) 4.97 µM

Q) Endpoint output: TGI of COC(=O)C1=C(O)C(C(=O)OC)[C@@]2(O)[C@@H](C(=O)OC)C(c3ccc(OC(=O)/C(=C/c4ccc(Cl)cc4)c4ccc(Cl)cc4)cc3)C[C@@H]1[C@@H]2C(=O)OC (stereo partly specified) . Value?
A) > 100 µM

Q) Endpoint output: TGI of "CC(=O)Oc1ccc(OC(C)=O)c2ccccc12" . Value?
A) 13.8 µM
